Entries annotated with measured EC50
- Tested on: Cdk1 phosphorylated on tyrosine 15
- MEASUREMENT_DESCRIPTION: High-content imaging of pCdk1 Y15 by immunofluorescence in ACHN cells
- Assay type: cell-based
- CONDITION: Homo sapiens, high-content imaging (IF), 4 h, 7 to 5000 nM, read-out: CDK1 Tyr15 Phosphorylation EC50 (IC50)

As a guide, the following entries are already answered.
- MOLECULE: "COc1nc(Nc2ccc(C3CCN(C)CC3)c(C)c2)ncc1C(=O)Nc1c(F)cc(F)cc1Cl [Compound 127]"
  VAL: "100 to 500 nM"
- MOLECULE: "CN1CCN(c2ccc(Nc3ncc(C(=O)Nc4c(Cl)cccc4Cl)c(OC4CC4)n3)cc2)CC1 [Compound 102]"
  VAL: "100 to 500 nM"
- MOLECULE: "COc1nc(Nc2ccc(C3CCN(C)CC3)c(C)c2)ncc1C(=O)Nc1c(Cl)cc(F)cc1Cl [Compound 121]"
  VAL: "100 to 500 nM"
- MOLECULE: "COc1nc(Nc2cnn(C)c2)ncc1C(=O)Nc1c(Cl)cccc1Cl [Compound 182]"
  VAL: "100 to 500 nM"
- MOLECULE: "COc1nc(Nc2ccc(C3CCN(C)CC3)c(C)c2)ncc1C(=O)Nc1c(C)ccc(O)c1C [Compound 142]"
  VAL: "≤ 100 nM"

Data request: Suppose we examine the molecule COc1nc(Nc2ccc(OCCCN(C)C)c(C)c2)ncc1C(=O)Nc1c(Cl)cccc1Cl [Compound 147] ; what EC50 value has been reported?
Data returned: > 1000 nM

Data request: Suppose we examine the molecule COc1nc(Nc2ccc(OC3CCNCC3)c(C)c2)ncc1C(=O)Nc1c(Cl)cccc1Cl [Compound 180] ; what EC50 value has been reported?
Data returned: 100 to 500 nM

Data request: Suppose we examine the molecule COc1nc(Nc2ccc(N3CCC(N(C)C)CC3)c(C)c2)ncc1C(=O)Nc1c(Cl)cccc1Br [Compound 213] ; what EC50 value has been reported?
Data returned: 100 to 500 nM

====

- Test system: Cdk1 phosphorylated on tyrosine 15
- MEASUREMENT_DESCRIPTION: High-content imaging of pCdk1 Y15 by immunofluorescence in ACHN cells
- Type: cell-based
- CONDITION: Homo sapiens, high-content imaging (IF), 4 h, 7 to 5000 nM, read-out: CDK1 Tyr15 Phosphorylation EC50 (IC50)
ENDPOINT_LABEL: EC50

As a guide, the following entries are already answered.
- COMPOUND: "COc1nc(Nc2ccc(OCCN3CCOCC3)c(C)c2)ncc1C(=O)Nc1c(Cl)cccc1Cl"
  EC50: "> 1000 nM"
- COMPOUND: "COc1nc(Nc2ccc(C3CCN(C)CC3)c(C)c2)ncc1C(=O)Nc1c(Cl)ccc(F)c1F"
  EC50: "> 1000 nM"
- COMPOUND: "COc1nc(Nc2ccc(N3CCCN(C)CC3)cc2)ncc1C(=O)Nc1c(Cl)cccc1Br"
  EC50: "100 to 500 nM"

Data request: Suppose we examine the compound `COc1nc(Nc2ccc(N3CCCNCC3)cc2)ncc1C(=O)Nc1c(Cl)cccc1Br` ; what EC50 value has been reported?
Data returned: 100 to 500 nM

Data request: Suppose we examine the compound `COc1nc(Nc2ccc(C3CCN(C)CC3)c(C)c2)ncc1C(=O)Nc1cc(O)ccc1Cl` ; what EC50 value has been reported?
Data returned: > 1000 nM

Data request: Suppose we examine the compound COc1nc(Nc2cnn([C@@H]3CCCN(C)CC3)c2)ncc1C(=O)Nc1c(Cl)cccc1Cl (single isomer, unassigned) ; what EC50 value has been reported?
Data returned: 100 to 500 nM

Data request: Suppose we examine the compound `CCOc1nc(Nc2ccc(OC3CCNCC3)c(C)c2)ncc1C(=O)Nc1c(Cl)cccc1Br` ; what EC50 value has been reported?
Data returned: 100 to 500 nM

====

Entries annotated with measured IC50
- ASSAY_SYSTEM: recombinant human Wee1A kinase (Homo sapiens, UniProt P30291)
- Construct: full length Wee1A kinase was expressed by baculovirus in insect cells
- Sequence (P30291 whole entry): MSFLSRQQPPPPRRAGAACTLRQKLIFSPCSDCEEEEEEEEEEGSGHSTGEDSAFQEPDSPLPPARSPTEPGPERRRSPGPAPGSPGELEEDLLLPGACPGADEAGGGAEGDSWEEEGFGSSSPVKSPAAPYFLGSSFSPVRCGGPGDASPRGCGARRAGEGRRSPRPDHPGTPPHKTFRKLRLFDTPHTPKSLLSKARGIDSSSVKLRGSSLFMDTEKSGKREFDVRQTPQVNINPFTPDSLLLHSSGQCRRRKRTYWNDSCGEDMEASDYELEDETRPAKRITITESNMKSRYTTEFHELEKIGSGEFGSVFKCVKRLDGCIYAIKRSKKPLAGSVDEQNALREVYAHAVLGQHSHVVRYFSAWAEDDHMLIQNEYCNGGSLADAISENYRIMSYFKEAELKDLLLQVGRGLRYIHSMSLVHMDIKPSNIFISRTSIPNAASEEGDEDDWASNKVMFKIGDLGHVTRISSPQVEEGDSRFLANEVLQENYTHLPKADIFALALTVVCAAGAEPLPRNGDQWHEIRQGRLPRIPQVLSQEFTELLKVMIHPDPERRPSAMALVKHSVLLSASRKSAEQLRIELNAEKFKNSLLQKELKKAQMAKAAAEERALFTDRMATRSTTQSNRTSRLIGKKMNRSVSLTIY
- MEASUREMENT_DESCRIPTION: LanthaScreen Europium (Eu) Kinase Binding Assay, Wee1A kinase (TR-FRET tracer displacement)
- CONDITION: 30 nM tracer 178, 5 nM Wee1A kinase, 60 minutes at room temperature
- Description: We used a LanthaScreen Europium (Eu) Kinase Binding Assay to determine the binding of provided compounds to Wee1A kinase. […] The proximity of fluorescently labeled kinase tracer and europium (Eu) donor fluorophore antibody leads to fluorescence resonance energy transfer (FRET) to the fluorescence label (acceptor) upon excitation of the Eu (donor). […]

As a guide, the following entries are already answered.
- MOLECULE: "COc1nc(Nc2ccc(O[C@@H]3CCN(C)C3)c(C)c2)ncc1C(=O)Nc1c(Cl)cccc1Cl"
  IC50: "≤ 10 nM"
- MOLECULE: "CCOc1nc(Nc2cnn([C@H](C)CN(C)C)c2)ncc1C(=O)Nc1c(Cl)cccc1Br"
  IC50: "≤ 10 nM"
- MOLECULE: "COc1nc(Nc2ccc(C3(C#N)CCN(C)CC3)c(C)c2)ncc1C(=O)Nc1c(Cl)cccc1Cl"
  IC50: "≤ 10 nM"
- MOLECULE: "COc1nc(Nc2ccc(C3CCN(C)CC3)c(C)c2)ncc1C(=O)Nc1c(Cl)ccc(O)c1C"
  IC50: "≤ 10 nM"
- MOLECULE: "COc1nc(Nc2ccc(C3CCN(C)CC3)c(C)c2)ncc1C(=O)Nc1c(Cl)ccc(F)c1F"
  IC50: "≤ 10 nM"
- MOLECULE: "COc1nc(Nc2ccc(OC3CCN(C)CC3)c(C)c2)ncc1C(=O)Nc1c(Cl)ccc(O)c1C"
  IC50: "≤ 10 nM"

Data request: Suppose we examine the molecule `COc1nc(Nc2ccc(OC3CCNCC3)cc2)ncc1C(=O)Nc1c(Cl)cccc1Cl` ; what IC50 value has been reported?
Data returned: ≤ 10 nM

Data request: Suppose we examine the molecule `COc1nc(Nc2ccc(-c3ccn(C)c3)c(C)c2)ncc1C(=O)Nc1c(Cl)cccc1Br` ; what IC50 value has been reported?
Data returned: 10 to 100 nM

Data request: Suppose we examine the molecule `COc1nc(Nc2ccc(C(=O)N3CCN(C)CC3)c(C)c2)ncc1C(=O)Nc1c(Cl)cccc1Cl` ; what IC50 value has been reported?
Data returned: 10 to 100 nM

Data request: Suppose we examine the molecule `COc1nc(Nc2ccc([C@H]3CCCN(C)C3)c(C)c2)ncc1C(=O)Nc1c(Cl)cccc1Br` ; what IC50 value has been reported?
Data returned: ≤ 10 nM

Data request: Suppose we examine the molecule `COc1nc(Nc2ccc(C3CCN(C)CC3)c(C)c2)ncc1C(=O)Nc1cnccc1Cl` ; what IC50 value has been reported?
Data returned: 10 to 100 nM

Data request: Suppose we examine the molecule COc1nc(Nc2cnn([C@H]3CCCNCC3)c2)ncc1C(=O)Nc1c(Cl)cccc1Cl (single isomer, unassigned) ; what IC50 value has been reported?
Data returned: ≤ 10 nM

====

- ASSAY_SYSTEM: recombinant human Wee1A kinase (Homo sapiens, UniProt P30291)
- Construct: full length Wee1A kinase was expressed by baculovirus in insect cells
- MEASUREMENT_DESCRIPTION: LanthaScreen Europium (Eu) Kinase Binding Assay, Wee1A kinase (TR-FRET tracer displacement)
- CONDITION: 30 nM tracer 178, 5 nM Wee1A kinase, 60 minutes at room temperature
Entries annotated with measured IC50

As a guide, the following entries are already answered.
- COMPOUND: "COc1nc(Nc2ccc(C3CCN(C)CC3)c(Cl)c2)ncc1C(=O)Nc1c(Cl)cccc1Br"
  VAL: "≤ 0.01 µM"
- COMPOUND: "COc1nc(Nc2ccc(C3CCN(C)CC3)c(C)c2)ncc1C(=O)Nc1cc(O)ccc1Cl"
  VAL: "≤ 0.01 µM"
- COMPOUND: "Cc1cc(Nc2ncc(C(=O)Nc3c(Cl)cccc3Cl)c(OCC(F)(F)F)n2)ccc1C1CCN(C)CC1"
  VAL: "≤ 0.01 µM"
- COMPOUND: "COc1nc(Nc2ccc(O[C@H]3CCN(C)C3)c(C)c2)ncc1C(=O)Nc1c(Cl)cccc1Cl"
  VAL: "≤ 0.01 µM"

Data request: Suppose we examine the compound COc1nc(Nc2ccc3c(cnn3C3CCN(C)C3)c2)ncc1C(=O)Nc1c(Cl)cccc1Cl (stereo not drawn) ; what IC50 value has been reported?
Data returned: 0.01 to 0.1 µM

Data request: Suppose we examine the compound `COc1nc(Nc2ccc3c(cnn3C)c2)ncc1C(=O)Nc1c(Cl)cccc1Cl` ; what IC50 value has been reported?
Data returned: 0.01 to 0.1 µM

Data request: Suppose we examine the compound `COc1nc(Nc2ccc(N3CCCNCC3)cc2)ncc1C(=O)Nc1c(Cl)cccc1Br` ; what IC50 value has been reported?
Data returned: ≤ 0.01 µM

Data request: Suppose we examine the compound `COc1nc(Nc2cc(C)c(N3CCC(N(C)C)CC3)c(F)c2)ncc1C(=O)Nc1c(Cl)cccc1Br` ; what IC50 value has been reported?
Data returned: ≤ 0.01 µM
